- Tested on: mice
- measurement notes: reserpine hypothermia reversal test
- Type: in vivo
- condition set: Table 5; mice; 1 mg./kg. intraperitoneally
Reported Percent Antagonism Reserpine Post-60 min. values for a set of compounds
Write it as a number; the unit % goes unstated.

Can you look up the measured Percent Antagonism Reserpine Post-60 min. of CN(C)CCC(Oc1cccc2ccccc12)c1ccccc1 (stereo not shown) for me?
15

Percent Antagonism Reserpine Post-60 min. for CCc1ccccc1OC(CCN(C)C)c1ccccc1 (stereo not shown) ?
17

I am curious: what Percent Antagonism Reserpine Post-60 min. value has been reported for CN(C)CCC(Oc1ccccc1Cl)c1ccccc1 (stereo not shown) ?
3

Data request, read-out Percent Antagonism Reserpine Post-60 min., for CNCCC(Oc1cccc(OC)c1)c1ccccc1 (stereo not shown)
-1
